Values from the supplement of paper PMC3334620

Test target: Gcr1 (UniProt P07261)
Sequence: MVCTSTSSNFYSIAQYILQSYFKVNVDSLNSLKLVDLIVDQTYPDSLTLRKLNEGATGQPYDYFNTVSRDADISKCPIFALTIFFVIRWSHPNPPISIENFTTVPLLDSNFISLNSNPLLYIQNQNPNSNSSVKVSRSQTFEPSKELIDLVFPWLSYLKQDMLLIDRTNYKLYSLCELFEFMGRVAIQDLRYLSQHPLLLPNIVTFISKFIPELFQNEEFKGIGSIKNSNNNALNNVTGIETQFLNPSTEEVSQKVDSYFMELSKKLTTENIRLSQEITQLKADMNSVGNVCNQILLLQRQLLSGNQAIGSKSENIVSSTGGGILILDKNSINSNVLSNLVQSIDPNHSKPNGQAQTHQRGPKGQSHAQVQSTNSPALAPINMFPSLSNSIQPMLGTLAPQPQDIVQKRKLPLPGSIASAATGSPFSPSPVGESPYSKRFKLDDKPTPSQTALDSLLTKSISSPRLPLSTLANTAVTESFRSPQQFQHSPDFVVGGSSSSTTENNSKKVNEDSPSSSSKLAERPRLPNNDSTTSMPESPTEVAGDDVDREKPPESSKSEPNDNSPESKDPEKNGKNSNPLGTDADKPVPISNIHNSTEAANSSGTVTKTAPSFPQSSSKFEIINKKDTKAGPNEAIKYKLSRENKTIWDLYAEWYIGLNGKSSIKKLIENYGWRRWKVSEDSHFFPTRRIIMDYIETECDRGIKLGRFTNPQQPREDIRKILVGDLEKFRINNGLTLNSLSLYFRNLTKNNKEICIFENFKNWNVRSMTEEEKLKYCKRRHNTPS
Protocol description: PBM E-score (8-mer binding enrichment) (E-score (-0.5 to 0.5)); higher = stronger / more preferred TF binding
Assay context: protein concentration: 100 nM; construct: GST-full length
Over roughly 33,000 sequences, “E-score (-0.5 to 0.5)” has its median near -0.011; the highest 2% begin near 0.28. Shown is part of a subset that was picked to be rich in the highest values.
Measure: PBM E-score
One number for each entry.

As a guide, the following entries are already answered.
{"Residues": "CCATTTAC", "Test target": "Gcr1 (UniProt P07261)", "Obs value": 0.0873}
{"Residues": "TGCACCAA", "Test target": "Gcr1 (UniProt P07261)", "Obs value": -0.133}
{"Residues": "CGTCGGTA", "Test target": "Gcr1 (UniProt P07261)", "Obs value": -0.15}
{"Residues": "GCAAAGAA", "Test target": "Gcr1 (UniProt P07261)", "Obs value": 0.00261}
{"Residues": "ACCATTTA", "Test target": "Gcr1 (UniProt P07261)", "Obs value": 0.0518}

Kindly give each listed record's PBM E-score.
1. TGCGTCCA
2. GTTAAATA
3. CCCATTTA

Result:
1. 0.0639
2. 0.0652
3. 0.293

Kindly give each listed record's PBM E-score.
1. CAACAGGA
2. ATGTTCCG
3. CGAAGCCG
4. AGGCTCCA
5. GCCTGTGA
6. GGCGTCCA
7. CCTATTTA
8. CCAAGCCG

Result:
0.226
-0.119
0.285
0.263
0.0496
0.436
0.247
-0.0556

Kindly give each listed record's PBM E-score.
1. AGTTATTC
2. CTTCAGGA
3. CGAGCCTC
4. CCGCGAGC
5. CACTTCTA
6. CGCGTCCA

Result:
1. 0.0537
2. 0.268
3. -0.0914
4. -0.0368
5. 0.00557
6. 0.245
